- assay-summary: Quantitative highthroughput screen to assess conditional lethalithy of SEM cells grown in RPMI1640 with dialyzed fetal bovine serum (RPMI+ds) (AID 1963884); also: nearly all actives have a fitted effect of over 35% in size; also: potency is read from the fitted curve at half-maximal effect
- test-conditions: SEM B-ALL cells, RPMI+dialyzed FBS, CellTiter-Glo viability, 48 h; series mostly up to 45.8 µM
Records with an inconclusive call do not appear. Active and inactive are the calls of the source. Calls follow the shape of the dose curve; as a rule, active = well fitted cell-killing curve with a large enough effect; inconclusive = small, poorly fitted or top-dose-only effect, or effect the other way; inactive = no such curve, though single readings can be large or run the other way.
measurement-label: Potency

As a guide, the following entries are already answered.
CC(C)Nc1cc(C(F)(F)F)cc2nc(NC(=O)c3cccnc3)nn12
1.18 µM (active)
c1cc(CN2CCCNCCNCCCNCC2)ccc1CN1CCCNCCNCCCNCC1
inactive
Nc1ncnc2c1nc(Cl)n2[C@@H]1O[C@H](CO)[C@@H](O)[C@@H]1O
8.33 µM (active)
CO[C@H]1/C=C\O[C@@]2(C)Oc3c(C)c(O)c4c(O)c(c5c(nc6cc(C)ccn65)c4c3C2=O)NC(=O)C(C)=CC=C[C@H](C)[C@H](O)[C@@H](C)[C@@H](O)[C@@H](C)[C@H](OC(C)=O)[C@H]1C
14.8 µM (active)

Entry `O=c1cc(-c2ccccc2)oc2cc(O)cc(O)c12` , Potency reported as 16.6 µM (active)

Entry `Cc1ccc(Nc2nccc(N(C)c3ccc4c(C)n(C)nc4c3)n2)cc1S(N)(=O)=O` , Potency reported as 14.8 µM (active)

Entry CN1[C@@H]2CCC[C@@H]1CC(NC(=O)c1nn(C)c3ccccc13)C2 (stereo partly drawn) , Potency reported as inactive

Entry `CC[C@]1(O)C[C@H]2CN(CCC3=c4ccccc4=N[C]3[C@@](C(=O)OC)(c3cc4c(cc3OC)N(C)[C@H]3[C@@](O)(C(N)=O)[C@H](O)[C@]5(CC)C=CCN6CC[C@]43[C@@H]65)C2)C1` , Potency reported as 0.118 µM (active)

----------
- assay-summary: Quantitative highthroughput screen to assess conditional lethalithy of P12 Ichikawa cells grown in RPMI1640 with untreated serum (RPMI+s) (AID 1963881); also: nearly all actives have a fitted effect of over 35% in size
- test-conditions: ATP luminescence, 48 h; viability; series mostly up to 45.8 µM
Records with an inconclusive call do not appear. The source made the active and inactive calls. The call rests on the fitted dose curve; in most records, active means well fitted cell-killing curve with a large enough effect; inconclusive means small, poorly fitted or top-dose-only effect; inactive means flat fitted curve, though single readings scatter.
API: response.call in TRUE (active), FALSE (inactive)

Per the records of this test, what outcome belongs to `Cc1nc2n(c(=O)c1CCN1CCC(c3noc4cc(F)ccc34)CC1)CCCC2` ? FALSE

Per the records of this test, what outcome belongs to `Cc1cccc(C#Cc2ccccc2)n1` ? FALSE

Per the records of this test, what outcome belongs to `CON=C(C(=O)N[C@@H]1C(=O)N2C(C(=O)O)=C(Cn3ccc(=N)n3CCO)CS[C@H]12)c1csc(N)n1` ? FALSE

Per the records of this test, what outcome belongs to `CC(C)n1c(C=C[C@H](O)C[C@H](O)CC(=O)O)c(-c2ccc(F)cc2)c2ccccc21` ? TRUE

Per the records of this test, what outcome belongs to `C=CCc1ccc(O)c(-c2ccc(O)c(CC=C)c2)c1` ? TRUE

Per the records of this test, what outcome belongs to `O=C(Nc1ccc(Oc2ccnc3[nH]ccc23)c(F)c1)c1cccn(-c2ccc(F)cc2)c1=O` ? FALSE

Per the records of this test, what outcome belongs to `COc1cccc2c1C(=O)c1c(O)c3c(c(O)c1C2=O)C[C@@](O)(C(=O)CO)C[C@H]3O[C@H]1C[C@H](N)[C@H](O)[C@H](C)O1` ? TRUE

Per the records of this test, what outcome belongs to `O=C(O)C(=O)Nc1cccc(C2=NN=N[N]2)c1` ? FALSE

Per the records of this test, what outcome belongs to `COc1ccc(S(=O)(=O)Nc2cccnc2Nc2ccc(O)cc2)cc1` ? TRUE

Per the records of this test, what outcome belongs to `Cc1ccc2c(c1)C(=O)[C@]1(O)CCN(c3ccccc3)C1=N2` ? FALSE

Per the records of this test, what outcome belongs to `Cc1cncc2cccc(S(=O)(=O)N3CCCN(C(=O)CN)C[C@@H]3C)c12` ? TRUE

Per the records of this test, what outcome belongs to `CNC(=O)c1ccc(-c2cnc3ncc(Cc4ccc5ncccc5c4)n3n2)cc1F` ? FALSE

Per the records of this test, what outcome belongs to `CC(C)=CC[C@@H](O)C1=CC(=O)c2c(O)ccc(O)c2C1=O` ? TRUE

Per the records of this test, what outcome belongs to CN(N=O)C(=O)N[C@H]1C(O)OC(CO)[C@@H](O)[C@H]1O (stereo partly drawn) ? FALSE

Per the records of this test, what outcome belongs to C[C@](Cc1c[nH]c2ccccc12)(NC(=O)OC1C2CC3CC(C2)CC1C3)C(=O)NC[C@H](NC(=O)CCC(=O)O)c1ccccc1 (stereo partly drawn) ? FALSE

Per the records of this test, what outcome belongs to `CCN(CC)CCOc1ccc(Cc2ccccc2)cc1` ? FALSE

Per the records of this test, what outcome belongs to `O=C(/C=C\n1cnc(-c2cc(C(F)(F)F)cc(C(F)(F)F)c2)n1)NNc1cnccn1` ? TRUE

Per the records of this test, what outcome belongs to `NC(=O)c1noc([C@H](CCCC2CCCCC2)CC(=O)NO)n1` ? TRUE

Per the records of this test, what outcome belongs to `O=c1[nH]c(=O)n([C@H]2C[C@@H](O)[C@@H](CO)O2)cc1C=CBr` ? FALSE

Per the records of this test, what outcome belongs to `Cn1cc(-c2ccc3nnc(C(F)(F)c4ccc5ncccc5c4)n3n2)cn1` ? FALSE

Per the records of this test, what outcome belongs to CC[C@@H]([C@H](C)O)n1ncn(-c2ccc(N3CCN(c4ccc(OCC5CO[C@@](Cn6cncn6)(c6ccc(F)cc6F)C5)cc4)CC3)cc2)c1=O (stereo partly drawn) ? FALSE

Per the records of this test, what outcome belongs to `C[C@@H]1COCCN1c1cc(=O)n2c(n1)N(Cc1cncc(Cl)c1)[C@H](C(F)(F)F)CC2` ? TRUE

Each recorded value in this set is attributed to PubChem BioAssay (NCATS).
